# target-or-system: UGT2B17 (Homo sapiens, UniProt O75795)
# Sequence (O75795 whole entry): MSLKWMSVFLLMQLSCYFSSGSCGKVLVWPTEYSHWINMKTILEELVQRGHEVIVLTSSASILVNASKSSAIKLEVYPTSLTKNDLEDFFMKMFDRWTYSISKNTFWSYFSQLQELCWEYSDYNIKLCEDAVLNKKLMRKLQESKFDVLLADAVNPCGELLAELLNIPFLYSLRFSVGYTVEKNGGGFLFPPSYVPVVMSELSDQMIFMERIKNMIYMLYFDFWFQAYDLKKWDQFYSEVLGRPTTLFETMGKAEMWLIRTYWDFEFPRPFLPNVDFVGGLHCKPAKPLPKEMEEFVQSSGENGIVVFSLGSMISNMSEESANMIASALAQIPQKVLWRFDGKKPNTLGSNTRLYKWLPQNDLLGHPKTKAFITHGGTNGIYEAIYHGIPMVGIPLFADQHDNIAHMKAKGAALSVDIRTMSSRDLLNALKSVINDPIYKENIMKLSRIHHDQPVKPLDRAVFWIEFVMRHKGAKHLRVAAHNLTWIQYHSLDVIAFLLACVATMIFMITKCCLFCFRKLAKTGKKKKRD
# assay-comment: Inhibition of UGT2B17
# settings: human; read-out: Imax
parameter-measured: Emax (%)
# unit: % | format: bare number

Ask: Which Emax value is on record for `COc1cccc2c1CCC[C@@H]2O` ?
Result: 89.1

Ask: Item `Cc1ccc2c(c1)[C@H](O)CCO2` has what recorded Emax?
Result: 72.6

Ask: Bench note: what Emax did `C[C@@H](O)c1cccc2ccccc12` show?
Result: 18.9

Ask: Which measured Emax value corresponds to `O[C@H]1CCCc2ccccc21` ?
Result: 76.1

Ask: Recorded Emax for `O[C@@H]1CCc2ccccc21` , please?
Result: 65.3

Now for another entry.
Ask: Entry under review: Cc1cc(C)c2c(c1)[C@H](O)CCC2 (racemic) . Reported Emax?
Result: 87.8

FYI, the data here is from ChEMBL document CHEMBL1139014.
